Measured values drawn from patent US20210261561A1 for this set.

Target: BACE2 (Mus musculus, UniProt Q9JL18)
Construct: endogenous in cells; host or cells: MIN6 mouse insulinoma cells expressing Flag-V5-TMEM27-HA
Sequence (Q9JL18 63-514): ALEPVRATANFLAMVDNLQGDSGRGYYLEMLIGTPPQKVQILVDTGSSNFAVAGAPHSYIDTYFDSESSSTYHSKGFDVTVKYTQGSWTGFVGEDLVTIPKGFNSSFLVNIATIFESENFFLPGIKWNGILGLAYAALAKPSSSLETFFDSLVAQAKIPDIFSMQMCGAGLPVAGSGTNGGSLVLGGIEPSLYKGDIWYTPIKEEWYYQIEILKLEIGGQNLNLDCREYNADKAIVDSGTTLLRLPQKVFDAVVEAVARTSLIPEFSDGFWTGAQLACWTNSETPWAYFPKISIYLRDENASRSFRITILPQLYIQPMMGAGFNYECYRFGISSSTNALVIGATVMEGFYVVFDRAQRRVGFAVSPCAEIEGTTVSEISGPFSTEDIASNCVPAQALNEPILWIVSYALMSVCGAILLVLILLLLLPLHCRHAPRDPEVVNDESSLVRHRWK
Assay: BACE2 cellular assay in MIN6 cells, secreted TMEM27 (Test Example 2-5)
Type: cell-based
Conditions: 24 hours incubation, secreted TMEM27 by MSD, read-out: Cellular MSD assay in Min6 cells TV1EV127 pIC50 (converted)
Description: Cellular BACE2 activity was measured by determination of the level of secreted TMEM27 into the medium of MIN6 cells using an MSD platform. The assay is based on the mouse insulinoma MIN6 cells expressing Flag-V5-TMEM27-HA. When BACE2 cleaves TMEM27 the N-terminal part of TMEM27 with the V5-Flag tag will be shed into the medium, and the amount of this cleaved product is measured with the MSD assay. […] Data are analysed using Screener (Registered trademark) (Genedata, Switzerland). […]
Consider the cut-off 400 nM. If the recorded IC50 is strictly smaller, the label is 1.0; if not, the label is 0.0.

CCS(=O)(=O)C1(CF)CCC(C)(c2cc(NC(=O)c3cc4c(cn3)OC(F)(F)CO4)ccc2F)N=C1N (stereo not shown) [II-34]: 1.0
[2H]C1([2H])Oc2cnc(C(=O)Nc3cc(F)c(F)c(C4(CF)CCC(C)(S(C)(=O)=O)C(N)=N4)c3)cc2OC1([2H])[2H] (stereo not shown) [II-16]: 0.0
CC1(S(C)(=O)=O)CCC(CF)(c2cc(NC(=O)c3cc4c(cn3)OC(F)(F)CO4)cc(F)c2F)N=C1N (stereo not shown) [II-17]: 1.0
CC1(S(C)(=O)=O)CCC(CF)(c2cc(NC(=O)c3cc4c(cn3)OCCCO4)ccc2F)N=C1N (stereo not shown) [II-5]: 0.0
CC1(S(C)(=O)=O)CCC(CF)(c2cc(NC(=O)c3cc4c(cn3)OCO4)ccc2F)N=C1N (stereo not shown) [II-4]: 1.0

Q) IC50 under 400 nM? Item: C[C@@]1(S(C)(=O)=O)CC[C@@](CF)(c2cc(NC(=O)c3cc4c(cn3)OC(F)(F)O4)ccc2F)N=C1N [II-6]
A) 1.0

Q) IC50 under 400 nM? Item: CC1(S(C)(=O)=O)CCC(CF)(c2cc(NC(=O)c3ncc4c(c3Cl)OCCO4)ccc2F)N=C1N (stereo not shown) [II-26]
A) 0.0

Q) IC50 under 400 nM? Item: CCS(=O)(=O)[C@]1(CF)CC[C@@](C)(c2cc(NC(=O)c3cc4c(cn3)OC(F)(F)O4)ccc2F)N=C1N [II-35]
A) 0.0

Q) IC50 under 400 nM? Item: CC1(S(C)(=O)=O)CCC(CF)(c2cc(NC(=O)c3ncc4c(c3F)OCCO4)ccc2F)N=C1N (stereo not shown) [II-8]
A) 1.0
